Measured melting point, listed per entry.

Consider the reported melting point for these compounds:
O=C(CC(c1cc2ccccc2s1)c1c[nH]c2ccccc12)c1ccc(Cl)cc1 (stereo not drawn) [Compound 3o] = 150 to 151 °C
O=C(CC(c1cc2ccccc2s1)c1c[nH]c2ccccc12)c1ccc(C(F)(F)F)cc1 (stereo not drawn) [Compound 3q] = 165 to 166 °C
COc1cccc(C(=O)CC(c2cc3ccccc3o2)c2c[nH]c3ccccc23)c1 (stereo not drawn) [Compound 3l] = 162 to 163 °C
O=C(CC(c1cc2ccccc2o1)c1c[nH]c2cc(F)ccc12)c1ccccc1[N+](=O)[O-] (stereo not drawn) [Compound 3i] = 139 to 140 °C
O=C(CC(c1cc2ccccc2o1)c1c[nH]c2cc(F)ccc12)c1ccc(Cl)cc1 (stereo not drawn) [Compound 3g] = 112 to 113 °C

For this compound ( O=C(CC(c1cc2ccccc2o1)c1c[nH]c2ccc(Br)cc12)c1ccc(F)cc1 (stereo not drawn) [Compound 3c] ), measured melting point is 167 to 168 °C

###

Listing: melting point of selected molecules

Reference set, count: 3
O=C(CC(c1cc2ccccc2o1)c1c[nH]c2ccccc12)c1ccc(Br)cc1 (stereo not drawn) = 108 to 109 °C
O=C(CC(c1cc2ccccc2s1)c1c[nH]c2ccccc12)c1ccc(Br)cc1 (stereo not drawn) = 121 to 122 °C
O=C(CC(c1cc2ccccc2o1)c1c[nH]c2ccc(Br)cc12)c1ccccc1[N+](=O)[O-] (stereo not drawn) = 173 to 174 °C

melting point measured on O=C(CC(c1cc2ccccc2o1)c1c[nH]c2cc(F)ccc12)c1ccc(Br)cc1 (stereo not drawn) = 123 to 124 °C

Just so you know, measured melting point for COc1ccccc1C(=O)CC(c1cc2ccccc2o1)c1c[nH]c2ccccc12 (stereo not drawn) came out at 67 to 68 °C

Kindly note the recorded melting point for O=C(CC(c1cc2ccccc2o1)c1c[nH]c2ccccc12)c1ccccc1[N+](=O)[O-] (stereo not drawn) , which is 154 to 155 °C
